The reported numbers originate from the NIST ThermoML archive (doi:10.1021/je100042c).

Would you mind telling me the reported viscosity of each entry?
- MEASUREMENT CONTEXT: 338.15 K; 101.33 kPa; Liquid; Concentric cylinders viscometry
All answers are understood in mPa·s, so give the number only.

Query: Field request: viscosity | item: CCCCCCCC/C=C\CCCCCCCC(=O)OCC [ethyl (Z)-9-octadeceneoate]
Response: 2.502

Query: Consider the molecule CCCCCCCCCC(=O)OCC [ethyl decanoate] and give its measured viscosity.
Response: 1.089

Query: Give its viscosity value. Item: CCCCCCCCCCCC(=O)OCC [ethyl dodecanoate]
Response: 1.453

Query: Given the molecule CCCCCCCC/C=C\CCCCCCCC(=O)OC [methyl cis-9-octadecenoate] , what is its reported viscosity?
Response: 2.416

Query: Value lookup for viscosity; key = CCCCCCCCCCCC(=O)OC [methyl dodecanoate]
Response: 1.362

Query: Which measured viscosity value corresponds to CCCCCCCC(=O)OC [methyl octanoate] ?
Response: 0.7528

Query: Find the recorded viscosity belonging to CCCCCCCCCCCCCCCC(=O)OCC [ethyl hexadecanoate] and report it.
Response: 2.412

Query: May I ask what viscosity has been recorded for CCCCCCCCCCCCCCCC(=O)OC [methyl hexadecanoate] ?
Response: 2.295

Query: Please report the recorded viscosity for CCCCCCCCCCCCCC(=O)OCC [ethyl tetradecanoate] .
Response: 1.889

Query: Given CCCCCCCCCCCCCC(=O)OC [methyl tetradecanoate] , state its recorded viscosity.
Response: 1.793

Query: Recorded viscosity for CCCCCCCCCCCCCCCCCC(=O)OC [methyl octadecanoate] , please?
Response: 2.929
